Attribute: LC50 (net 50% loss of initial cells)
Test system: NCI-H322M
Test: Anticancer activity against human NCI-H322M cells after 48 hrs
Type: functional

MOLECULE	LC50 (net 50% loss of initial cells)
Cc1cc(O)c(C2=NN(c3ccc(S(N)(=O)=O)cc3)C(c3ccccc3O)C2)cc1Cl (centres undefined)	26 µM
COc1ccc(C2CC(c3cc(Cl)c(C)cc3O)=NN2c2ccc(S(N)(=O)=O)cc2)cc1OC (centres undefined)	> 100 µM
Cc1cc(O)c(C2=NN(c3ccc(S(N)(=O)=O)cc3)C(c3ccccc3Cl)C2)cc1Cl (centres undefined)	22 µM
Cc1cc(O)c(C2=NN(c3ccc(S(N)(=O)=O)cc3)C(/C=C/c3ccccc3)C2)cc1Cl (centres undefined)	> 100 µM
